Sourced from patent US5686486A

- SYSTEM UNDER TEST: HIV-1 protease (Human immunodeficiency virus type 1 group M subtype B)
- ASSAY DETAILS: biochemical
- PARTICULARS: dose 1.100 uM; read-out: HIV-1 Protease % Inhib
OBSERVED PROPERTY: inhibition at 1.1 µM (%)

Please review the following examples before continuing.
| COMPOUND | VALUE UNITS | inhibition at 1.1 µM |
| --- | --- | --- |
| CCCCCCCCCCCCS(=O)(=O)Nc1cccc(C(c2c(O)c3c(oc2=O)CCCCCC3)C2CC2)c1 (stereo not shown) | % | 11.8 |
| O=c1oc2c(c(O)c1C(c1cccc(NC(=S)Cc3ccccc3)c1)C1CC1)CCCCCC2 (stereo not shown) | % | 17.4 |
| Nc1ccc(C(c2c(O)c3c(oc2=O)CCCCCC3)C2CC2)cc1 (stereo not shown) | % | 37.5 |
| CCC(c1cccc(N)c1)c1c(O)c2c(oc1=O)CCCCCC2 (stereo not shown) | % | 26.2 |
| O=c1oc2c(c(O)c1C(c1ccc(CNS(=O)(=O)c3ccc(F)cc3)o1)C1CC1)CCCCCC2 (stereo not shown) | % | 13.1 |
| O=c1oc2c(c(O)c1C(c1ccc(CO)o1)C1CC1)CCCCCC2 (stereo not shown) | % | 28.9 |

P = O=C(Nc1ccccc1)Nc1cccc(C(c2c(O)c3c(oc2=O)CCCCCC3)C2CC2)c1 (stereo not shown)
Q = N#Cc1ccc(S(=O)(=O)NCc2ccc(C(c3c(O)c4c(oc3=O)CCCCCC4)C3CC3)s2)cc1 (stereo not shown)
Qu. Endpoint returns whichever of P and Q has the numerically higher inhibition at 1.1 µM. # respond with the chosen item's label
Ans. P
(P: 42.4%, Q: 11.5%)

A = COCCOCCOCCC1CCCCc2c1oc(=O)c(C(c1ccccc1)C1CC1)c2O (stereo not shown)
B = O=c1oc2c(c(O)c1C(c1ccccc1)C1CC1)CCCCC2CC1CCCOC1 (stereo not shown)
C = O=c1oc2c(c(O)c1C(c1ccccc1)C1CC1)CCCCCC2CO (stereo not shown)
Qu. # desc sort on inhibition at 1.1 µM across 3 compounds Return the labels ranked in the requested order, please.
Ans. B, C, A
(B: 32.9%, C: 15%, A: 10.4%)

1 = C=CS(=O)(=O)Nc1cccc(C(c2c(O)c3c(oc2=O)CCCCC3)C2CC2)c1 (stereo not shown)
2 = COCCOCCC1CCCCc2c1oc(=O)c(C(c1ccccc1)C1CC1)c2O (stereo not shown)
Qu. Endpoint returns whichever of 1 and 2 has the numerically higher inhibition at 1.1 µM. # respond with the chosen item's label
Ans. 2
(2: 31.3%, 1: 21.5%)
